The entries below are paired with their reported log10 of IC50.
- STUDY_TARGET: T1, motilin receptor spliced form A (MTL-R1A), human (human, UniProt O43193 1-412)
- T1 construct: Full-length 412 aa seven-transmembrane receptor, transiently expressed in HEK-293/aeq17 cells; also called MTL-1A; MTL1-A
- T1 sequence (O43193 whole entry, canonical isoform): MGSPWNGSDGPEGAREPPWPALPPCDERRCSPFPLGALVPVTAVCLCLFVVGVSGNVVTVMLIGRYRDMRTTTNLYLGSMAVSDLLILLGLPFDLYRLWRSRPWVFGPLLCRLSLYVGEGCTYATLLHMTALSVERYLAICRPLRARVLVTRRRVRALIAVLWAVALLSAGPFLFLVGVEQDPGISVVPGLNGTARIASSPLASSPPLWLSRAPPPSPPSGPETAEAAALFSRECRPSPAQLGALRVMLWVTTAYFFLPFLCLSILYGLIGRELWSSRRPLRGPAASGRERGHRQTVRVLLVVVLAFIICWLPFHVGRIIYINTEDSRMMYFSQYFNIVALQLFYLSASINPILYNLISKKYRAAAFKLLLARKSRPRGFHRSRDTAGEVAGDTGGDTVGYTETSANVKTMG
- TEST_DETAILS: displacement of [125I] human motilin from crude membranes of MTL-R1A transfected HEK-293/aeq17 cells
QUANTITY_KIND: log10 of IC50 (log10 of the value in nM)

>  <BINDER>
FVPIFTYGELQR (peptide, UniProt P12872 26-37, looked up, range 1-12; The range counts on mature motilin, not on the precursor entry) [1-12 MTL]

>  <TEST_VALUE>
1.15

$$$$
>  <BINDER>
FVPIFTYGELQ (peptide, UniProt P12872 26-36, looked up, range 1-11; The range counts on mature motilin, not on the precursor entry) [1-11 MTL]

>  <TEST_VALUE>
2.10

$$$$
>  <BINDER>
FVPIFTYGELQRMQEKERN (peptide, UniProt P12872 26-44, looked up, range 1-19; The range counts on mature motilin, not on the precursor entry) [1-19 MTL]

>  <TEST_VALUE>
-0.52

$$$$
>  <BINDER>
FVPIFTYGELQRM (peptide, UniProt P12872 26-38, looked up, range 1-13; The range counts on mature motilin, not on the precursor entry) [1-13 MTL]

>  <TEST_VALUE>
-0.05

$$$$
>  <BINDER>
FVPIFTYGELQRLQEKERNKGQ (peptide, UniProt P12872 26-47, looked up, mature; Position 13 counts on the mature peptide, not on the precursor) [Leu13 MTL]

>  <TEST_VALUE>
-0.70

$$$$
>  <BINDER>
LQRMQEKERNKGQ (peptide, UniProt P12872 35-47, looked up, range 10-22; The range counts on mature motilin, not on the precursor entry) [10-22 MTL]

>  <TEST_VALUE>
3.04

$$$$

Values from patent US7179886B1
